# Test system: HCT116 cells
# Assay info: Synergy viability assay (CellTitre blue, 5 days), HCT116 ARID1A(+/+)
# Format: cell-based, human
# Experimental conditions: Homo sapiens, HCT-116, 120 h, highest dose of BAFi (Baficillin1) tested in combination, 5 days; read-out: VE-821 IC50 in combination with BAFi
Readout label: IC50

Recorded IC50 (compound CS(=O)(=O)c1ccc(-c2cnc(N)c(C(=O)Nc3ccccc3)n2)cc1 ): ~1000 nM

Measured values drawn from patent US11267809B2 for this set.
